assaySystem: T1, biotinylated goat anti-human kappa light chain
T1 construct: positive control of the ELISA
assayDetails: ELISA, positive control; also: test concentration or dose not given here
Task for the reader: assign each of the following binders its reported optical density.
One number for each entry, in OD.

binder	unitInfo	optical density
368_C02 (antibody, V domains shown, Group III) VH: EVQLLESGGGLVQPGGSLRLSCAASGFTFDDYSMNWVRQAPGKGLEWVANINYNGGYKGYADSVKGRFTISRDNSKNTLYLQMNSLRAEDTAVYYCARGANWHDTHLDYWGQGTLVTVSS VL: DIQMTQSPSSLSASVGDRVTITCRASQSISTYVNWYQQKPGKAPKLLIYAATSLASGVPSRFSGSGSGTDFTLTISSLQPEDFATYYCQQSYSTPLTFGGGTKVEIK	OD	3.51

# map each binder to its optical density
1. 371_B09 (antibody, V domains shown, Group III) VH: EVQLLESGGGLVQPGGSLRLSCAASGFTFSSYSMNWVRQAPGKGLEWVAGINYNSGYTGYADSVKGRFTISRDNSKNTLYLQMNSLRAEDTAVYYCARGANWHDTHLDYWGQGTLVTVSS VL: DIQMTQSPSSLSASVGDRVTITCRASQSILSYVNWYQQKPGKAPKLVIYATTSLASGVPSRFSGSGSGTDFTLTISSLQPEDFATYYCQQSYDTPLTFGGGTKVEIK
2. 371_A10 (antibody, V domains shown, Group III) VH: EVQLLESGGGLVQPGGSLRLSCAASGFTFDDYSMNWVRQAPGKGLEWVSGINYNGGYKGYADSVKGRFTISRDNSKNTLYLQMNSLRAEDTAVYYCARGANWHDTALDYWGQGTLVTVSS VL: DIQMTQSPSSLSASVGDRVTITCRASQSIVSYLNWYQQKPGKAPKLVIYAATSRASGVPSRFSGSGSGTDFTLTISSLQPEDFATYYCQQSYENPLTFGGGTKVEIK
3. 372_E01 (antibody, V domains shown, Group III) VH: EVQLLESGGGLVQPGGSLRLSCAASGFTFDDYSMNWVRQAPGKGLEWVSGINYNGGYKGYADSVKGRFTISRDNSKNTLYLQMNSLRAEDTAVYYCARGANWHDTALDYWGQGTLVTVSS VL: DIQMTQSPSSLSASVGDRVTITCRASQSIVSYLNWYQQKPGKAPKLVIYAATSRHSGVPSRFSGSGSGTDFTLTISSLQPEDFATYYCQQSYDSPLTFGGGTKVEIK
4. 370_H02 (antibody, V domains shown, Group III) VH: EVQLLESGGGLVQPGGSLRLSCAASGFTFDSYSMNWVRQAPGKGLEWVSGINYNSGYTSYADSVKGRFTISRDNSKNTLYLQMNSLRAEDTAVYYCARGANWHDTHLDYWGQGTLVTVSS VL: DIQMTQSPSSLSASVGDRVTITCRASQSILTYLNWYQQKPGKAPKLLIYAATSRASGVPSRFSGSGSGTDFTLTISSLQPEDFATYYCQQSYESPLTFGGGTKVEIK

Reply:
2.7
3.48
3.6
3.67

Source of measurements: patent US20210380703A1
